Source: PubChem BioAssay AID2060495

Each item that follows carries a reported viability, T/C.
- Tested on: 521955-158-R2-J5-PDC complex spheroid viability;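 also: spheroids exposed to agents for one week before reading; 100% = DMSO vehicle control viability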
- experiment: Anticancer human tumor 521955-158-R2-J5-PDC patient-derived pancreatic carcinoma cell line growth inhibition [GQUAD]
- applied.conditions: second compound 3.16 µM; first compound 0.316 µM; stronger effect = lower value
- Source text: DNA G-quadruplex Stabilizer Agents in Combinations in Complex Spheroids A high-throughput screen of multi-cell type tumor spheroids was designed to identify active combinations of DNA G-quadruplex stabilizer agents and targeted small molecules. […] Compounds. […] If the clinical Cmax for an agent had not been determined, the highest concentration tested was 10 microM. […]
measurement.label: viability, T/C (%)

- COc1cc(C2c3cc4c(cc3C(OC3OC5COC(C)OC5C(O)C3O)C3COC(=O)C23)OCO4)cc(OC)c1O (stereo not given) + CN(C)c1ccc(Nc2c3ccc(NC(=O)CCN4CCCC4)cc3nc3cc(NC(=O)CCN4CCCC4)ccc23)cc1: 61.4
- COc1ccc([C@@H](O)c2cc(-c3ncnc4cc(N5CCOCC5)ccc34)c(F)cc2Cl)nn1 + Cc1[nH]c2ccc(F)cc2c1-c1nc2c3cccnc3c3ncccc3c2[nH]1: 75.9
- C=CC(=O)N1CCN(c2nc(=O)n(-c3c(C)ccnc3C(C)C)c3nc(-c4c(O)cccc4F)c(F)cc23)C(C)C1 (stereo not given) + CN(C)c1ccc(Nc2c3ccc(NC(=O)CCN4CCCC4)cc3nc3cc(NC(=O)CCN4CCCC4)ccc23)cc1: 85.5
- CC(=O)O[C@H]1C(=O)[C@@]2(C)[C@H]([C@H](OC(=O)c3ccccc3)[C@]3(O)C[C@H](OC(=O)[C@H](O)[C@@H](NC(=O)c4ccccc4)c4ccccc4)C(C)=C1C3(C)C)[C@]1(OC(C)=O)CO[C@@H]1C[C@@H]2O + Cc1[nH]c2ccc(F)cc2c1-c1nc2c3cccnc3c3ncccc3c2[nH]1: 30.6
- COc1ncnc(C2CC2)c1-c1ncc2cnn(Cc3ccc(-c4nc(C(F)(F)F)cn4C(C)C)cc3)c2n1 + CN(C)c1ccc(Nc2c3ccc(NC(=O)CCN4CCCC4)cc3nc3cc(NC(=O)CCN4CCCC4)ccc23)cc1: 101
